Target: Human glucagon receptor (human, UniProt P47871 26-477)
Assay: cell-based or functional assay
Where no end group is shown, it is not given here. [ ]: non-standard residue; d: D form. Ac3c = NC1(C(=O)O)CC1
Could you mark each record yes if its cAMP production with saturated glucagon peptide; test compound 1 nM falls strictly under 3 pmol/ml/µg prt, and no if it equals or exceeds it?

BINDER	ANSWER_LABEL
H[Ac3c]QGTFTSD[Bip(OMe)][Bip(Pyr)] [Seq. ID. No. 18: H-(ACP)-QGTFTSD-Bip(OMe)-Bip(Pyr)]	yes
H[Ac3c]QGTFTSD[Bip(OMe)][Bip(2Me)] [Seq. ID. No. 17: H-(ACP)-QGTFTSD-Bip(OMe)-Bip(2Me)]	yes
HAQGTFTSD[Bip(OMe)][Bip(2F)] [Seq. ID. No. 11: HAQGTFTSD-Bip(OMe)-Bip(2F)]	no
HXQGTXTSDXX (not fully specified; ACP at 2; α-Me-2F-Phe at 6; Bip(OMe) at 10; Bip(Pyr) at 11) [Seq. ID. No. 34: H-(ACP)-QGT-(α-Me-2F-Phe)-TSD-Bip(OMe)-Bip(Pyr)]	yes
HSQGTXTSDXX (α-Me-2F-Phe at 6; Bip(OMe) at 10; Bip(Pyr) at 11) [Seq. ID. No. 22: HSQGT-(α-Me-2F-Phe)-TSD-Bip(OMe)-Bip(Pyr)]	no
